- assay_system: T1, IL6R on the cell-surface of TF-1 cells (UniProt P08887 20-468, limits assumed)
- T1 sequence (looked up): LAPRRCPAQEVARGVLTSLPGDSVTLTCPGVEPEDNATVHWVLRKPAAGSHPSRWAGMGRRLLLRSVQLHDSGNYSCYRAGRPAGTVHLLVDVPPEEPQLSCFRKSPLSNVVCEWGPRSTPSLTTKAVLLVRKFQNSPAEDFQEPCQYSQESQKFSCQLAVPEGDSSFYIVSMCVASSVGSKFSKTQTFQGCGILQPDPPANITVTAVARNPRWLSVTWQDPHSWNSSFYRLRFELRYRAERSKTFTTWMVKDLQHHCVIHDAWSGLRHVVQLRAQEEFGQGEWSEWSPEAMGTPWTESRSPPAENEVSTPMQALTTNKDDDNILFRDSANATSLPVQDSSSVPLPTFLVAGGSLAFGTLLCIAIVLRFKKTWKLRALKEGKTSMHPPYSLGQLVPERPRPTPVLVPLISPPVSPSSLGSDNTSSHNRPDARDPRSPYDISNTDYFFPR
- assay_procedure: cell-based or functional assay
# key: entry, value: Inhibition of IL6-dependent proliferation of TF-1 cells (3H-thymidine incorporation), IC50
metric_name: Inhibition of IL6-dependent proliferation of TF-1 cells (3H-thymidine incorporation), IC50 (nM)

>>> readout_number("IL6R65PMP7C4 (VHH, Also expressed in E. coli and purified via IMAC) VHH: EVQLVESGGGLVQPGGSLRLSCAASGTTFRINVMAWYRQAPGKGRELVAGIITNGSTSYADSVKGRFTISRDNAKNTLYLQMNSLRPEDTAVYYCAFVTTNSDYDLGRDYWGQGTLVTVSS")
2.5
>>> readout_number("IL6R65PMP7G7 (VHH, Also expressed in E. coli and purified via IMAC) VHH: EVQLVESGGGLVQPGGSLRLSCAASGTTFKINIMAWYRQAPGKGRELVAGVITGGNTTYADSVKGRFTISRDNAKNTLYLQMNSLRPEDTAVYYCAFVTTNSDYDLGRDYWGQGTLVTVSS")
3.5
>>> readout_number("IL6R65PMP7F4 (VHH, Also expressed in E. coli and purified via IMAC) VHH: EVQLVESGGGLVQPGGSLRLSCAASGTTFKVNVMAWYRQAPGKGRELVAGIINGGSTTYADSVKGRFTISRDNAKNTLYLQMNSLRPEDTAVYYCAFVTTNSDYDLGRDYWGQGTLVTVSS")
5.2
>>> readout_number("IL6R65PMP7D6 (VHH, Also expressed in E. coli and purified via IMAC) VHH: EVQLVESGGGLVQPGGSLRLSCAASGSIFRVNVMAWYRQAPGKGRELVAAVINGGTTTYADSVKGRFTISRDNAKNTLYLQMNSLRPEDTAVYYCAFVTTNSDYDLGRDYWGQGTLVTVSS")
3.7
